Values were extracted from patent US20230035659A1.

# Test system: TTR
# procedure text: TTR editing in primary human hepatocytes treated with LNP formulated Spy Cas9 mRNA (SEQ ID NO: 2) and sgRNAs, 12.5 ng mRNA
# Format: cell-based
# measurement context: LNP formulated Spy Cas9 mRNA (SEQ ID NO: 2) and sgRNA, 12.5 ng mRNA, 3.9 nM sgRNA, 72 hours
# Method: Primary liver hepatocytes. Primary human liver hepatocytes (PHH) and primary cynomolgus liver hepatocytes (PCH) (Gibco) were cultured per the manufacturer's protocol (Invitrogen, protocol 11.28.2012). […] Cells were counted and plated on Bio-coat collagen I coated 96-well plates (ThermoFisher, Cat. 877272) at a density of 33,000 cells/well for human or 60,000 cells/well for cyno (or 65,000 cells/well when assaying effects on TTR protein, described further below). […]
Strand notation (5' to 3'): a small letter for the sugar, then the base; units joined by * are phosphorothioate-linked, units joined directly phosphodiester-linked; [ ] holds rarer units or linkages, { } end groups; capitals alone tell only the bases. m = 2'-O-methyl; r = 2'-OH (RNA)
measure name: 12.5 ng mRNA, 3.9 nM sgRNA, Avg % Edit (%)
Kindly provide the numeric value in % only, without the unit symbol.

Some entries whose results are on file:
[[record]]
molecule = "G000498: TTR sgRNA modified sequence, Human, SEQ ID NO: 105; guide sequence of CR003359 (nucleic acid) guide: mA*mG*mU*rGrArGrUrCrUrGrGrArGrArGrCrUrGrCrArGrUrUrUrUrArGrAmGmCmUmAmGmAmAmAmUmAmGmCrArArGrUrUrArArArArUrArArGrGrCrUrArGrUrCrCrGrUrUrArUrCrAmAmCmUmUmGmAmAmAmAmAmGmUmGmGmCmAmCmCmGmAmGmUmCmGmGmUmGmCmU*mU*mU*mU"
measure_name = "12.5 ng mRNA, 3.9 nM sgRNA, Avg % Edit"
data_value = 24.43

[[record]]
molecule = "G000567: TTR sgRNA modified sequence, Human, SEQ ID NO: 109; guide sequence of CR003352 (nucleic acid) guide: mG*mA*mA*rArGrGrCrUrGrCrUrGrArUrGrArCrArCrCrGrUrUrUrUrArGrAmGmCmUmAmGmAmAmAmUmAmGmCrArArGrUrUrArArArArUrArArGrGrCrUrArGrUrCrCrGrUrUrArUrCrAmAmCmUmUmGmAmAmAmAmAmGmUmGmGmCmAmCmCmGmAmGmUmCmGmGmUmGmCmU*mU*mU*mU"
measure_name = "12.5 ng mRNA, 3.9 nM sgRNA, Avg % Edit"
data_value = 48.95


Would you kindly look at the next entry?
Look up and report measured 12.5 ng mRNA, 3.9 nM sgRNA, Avg % Edit for this entry: G000492: TTR sgRNA modified sequence, Human, SEQ ID NO: 99; guide sequence of CR003342 (nucleic acid) guide: mC*mU*mU*rCrUrCrUrArCrArCrCrCrArGrGrGrCrArCrGrUrUrUrUrArGrAmGmCmUmAmGmAmAmAmUmAmGmCrArArGrUrUrArArArArUrArArGrGrCrUrArGrUrCrCrGrUrUrArUrCrAmAmCmUmUmGmAmAmAmAmAmGmUmGmGmCmAmCmCmGmAmGmUmCmGmGmUmGmCmU*mU*mU*mU
15.87
